# ASSAYED_SYSTEM: Beta-adrenergic receptor kinase 1 (Homo sapiens)
# EXPERIMENT_NOTES: GRK2 binders displacing RNA aptamer, biochemical, validation, human GRK2, bead flow cytometry (AID 488806)
# CONDITION_CONTEXT: bead-bound GRK2, FAM-aptamer displacement, at 10 µM, hits give high values
Would you mind telling me the reported aptamer binding inhibition of each entry?
// units = %; emit number, no label

Notebook: `CC(=O)Oc1ccc(C(c2ccc(OC(C)=O)cc2)c2ccccn2)cc1` , aptamer binding inhibition read as 4

Notebook: CC(NCCc1ccc(O)cc1)C(O)c1ccc(O)cc1 (stereo unspecified) , aptamer binding inhibition read as 2

Notebook: `Cc1oncc1C(=O)Nc1ccc(C(F)(F)F)cc1` , aptamer binding inhibition read as 10

Notebook: `COc1ccc(C2C3=C(CC(C)(C)CC3=O)N(C)C3=C2C(=O)CC(C)(C)C3)cc1` , aptamer binding inhibition read as 5

Notebook: `COc1ccc(-c2c3c(=O)n(C)c(=O)n(C)c3cn2C2CCCCC2)cc1` , aptamer binding inhibition read as -1

Notebook: `NC(N)=N/N=C/c1c(Cl)cccc1Cl` , aptamer binding inhibition read as -4

Reference source for all entries: PubChem BioAssay
